measurementName: melting point (°C)

CCOC(=O)c1c(C)oc2c(F)c(F)c(F)c(F)c12 70

A. COC(=O)c1sccc1OC
B. O=C(O)c1cc2cc3c4c(c2oc1=O)CCCN4CCC3
C. CC(=O)Oc1ccc(Br)cc1
D. Cc1ccc(C)c(Cl)c1
Query block: Put the items in order so that reported melting point rises from first to last. Answer format: the labels, in the requested order.
Result block: D, C, A, B

---

measurementName: melting point (°C)

Some entries whose results are on file:
compound	melting point, °C
CCNc1nc(NC(C)C)nc(SC)n1	88
O=C1c2cc3ccccc3cc2-c2ccc3ccccc3c21	214
CC(=O)Nc1ccc(C(C)=O)cc1Br	140
CC(=O)NC(=O)COC(=O)c1ccccc1	104
Cc1cc(C)nc(NS(=O)(=O)c2ccc(N)cc2)n1	200
c1ccc(-c2nnc3n2NC(c2ccccc2)S3)cc1 (configuration not stated)	83
Cn1c(/C(C#N)=N/Nc2cccc(Cl)c2)nc2ccccc21	165
Cc1ccc(C(C)(C)C(=O)ON)cc1	119
COC(=O)C=Cc1ccc(Cl)cc1	76
Cn1nc(-c2ccco2)cc1C(=O)O	130

A. CC(C)c1ccc2cc(C(C)C)ccc2c1
B. Nc1nn2c(C(F)(F)F)cc(=O)[nH]c2c1/N=N/c1cccc2ccccc12
C. CN(C)C(=O)NC1CCCCCCC1
D. O=C(O)CC1CCCC1
Query block: Order the records, beginning with the lowest melting point and ending with the highest. Output spec: a listing of the labels in the requested order.
Result block: D, A, C, B
(D: 12 °C, A: 69 °C, C: 138 °C, B: 290 °C)

---

measurementName: melting point (°C)

Use the examples below as a reference point.
molecule	measurement
NNc1c2ccccc2nc2ccccc12	177
COC(=O)C(NC(=O)OCc1ccccc1)P(=O)(OC)OC (stereo unspecified)	78

A. Cc1ccc(C)c2c1-c1nc3ccccc3nc1-2
B. S=c1nnc(-c2ccccc2)c(Nc2ccc(Br)cc2)[nH]1
Query block: I need your help: which of the pair A , B has higher melting point? Bench note: the answer is the label of the chosen record.
Result block: B

---

measurementName: melting point (°C)

Solved entries:
molecule	measurementName	units	measurement
C=COCCCCCCCCCCCCCCCCCC	melting point	°C	30
O=C(C(=S)N1CCOCC1)c1ccccc1	melting point	°C	75
O=[N+]([O-])c1ccc2ccccc2c1	melting point	°C	79
CCC(=O)c1ccc(N)cc1	melting point	°C	140
CSc1nc2cc(NCc3ccc(Cl)cc3)ccc2[nH]1	melting point	°C	248
COc1ccc(CC2c3cc(OC)c(OC)cc3CCN2C)cc1OC (stereo not given)	melting point	°C	89
O=S(=O)(Cl)c1cc(Cl)c(Cl)s1	melting point	°C	56
CC(CCC(=O)O)c1ccccc1 (stereo not given)	melting point	°C	13
BrCc1ccccc1I	melting point	°C	56
Cc1ccc(S(=O)(=O)NCCN(CCN(CCNS(=O)(=O)c2ccc(C)cc2)S(=O)(=O)c2ccc(C)cc2)S(=O)(=O)c2ccc(C)cc2)cc1	melting point	°C	112

a. Cc1ccc2c(c1[N+](=O)[O-])C(=O)c1c(Cl)c(Cl)c(Cl)c(Cl)c1C2=O
b. CCC(C)C(=O)NC1CCC(=O)N(CCc2ccccc2)C1=O (stereo not given)
c. CCCCCCCCCCCC(C)=O
Query block: Arrange the 3 molecules from largest to smallest melting point. Sort the labels as requested; that list is your answer.
Result block: a, b, c
